# Tested on: Escherichia coli ATCC 25922
RECORDED_METRIC: MIC
// unit must come after the numeric part

CC[C@H](C)[C@H](NC(=O)CN)C(=O)N[C@H](C(=O)N[C@@H](CCCN=C(N)N)C(=O)NCC(=O)N[C@H](C(=O)N[C@H](C(=O)N[C@@H](CCCCN)C(=O)N[C@H](C(=O)N[C@H](C(=O)N[C@@H](CCCCN)C(=O)N[C@@H](CCCN=C(N)N)C(N)=O)[C@@H](C)CC)[C@@H](C)CC)[C@@H](C)CC)[C@@H](C)CC)[C@@H](C)CC 64 µM

Here's the next entry for you.
INPUT: Any idea what MIC came out for "CC[C@H](C)[C@H](NC(=O)[C@H](CCCCN)NC(=O)[C@H](CCCCN)NC(=O)[C@@H](N)CCC(N)=O)C(=O)N[C@@H](CCCN=C(N)N)C(=O)N[C@H](C(=O)N[C@@H](C)C(=O)N[C@@H](CC(C)C)C(=O)N[C@@H](CO)C(=O)N[C@@H](C)C(=O)O)C(C)C" on Escherichia coli ATCC 25922?
OUTPUT: 14.4 µM

----------
# System: Pseudomonas aeruginosa PAO1
# PROTOCOL_SUMMARY: ≥ marks a high value that may be exact or a test limit, other limits are often not marked, values filed in µg/mL are converted to µM
This section presents molecules with their documented MIC values.
Provide only the numeric value, understood in µM.

MOLECULE	MIC, µM
CC[C@H](C)[C@H](NC(=O)[C@@H]1CCCN1C(=O)[C@H](CC(C)C)NC(=O)[C@@H](N)Cc1ccccc1)C(=O)N[C@H](C(=O)NCC(=O)N[C@@H](CC(C)C)C(=O)N[C@@H](CC(C)C)C(=O)N[C@@H](CCCCN)C(=O)N[C@@H](CO)C(=O)N[C@@H](CC(C)C)C(=O)N[C@@H](CC(C)C)C(=O)N[C@@H](CCCCN)C(N)=O)C(C)C [FLPIVGLLKSLLK]	88.8

Here's the next entry for you.
INPUT: Returns the measured MIC for the input molecule. Input: CC[C@H](C)[C@H](N)C(=O)N[C@@H](Cc1cnc[nH]1)C(=O)N[C@@H](Cc1cnc[nH]1)C(=O)N[C@H](C(=O)N[C@@H](Cc1cnc[nH]1)C(=O)N[C@@H](Cc1cnc[nH]1)C(=O)N[C@@H](Cc1cnc[nH]1)C(=O)N[C@H](C(=O)N[C@@H](Cc1cnc[nH]1)C(=O)N[C@@H](Cc1cnc[nH]1)C(=O)N[C@H](C(=O)N[C@@H](Cc1cnc[nH]1)C(=O)N[C@@H](Cc1cnc[nH]1)C(=O)N[C@@H](Cc1cnc[nH]1)C(N)=O)[C@@H](C)CC)[C@@H](C)CC)[C@@H](C)CC [IHHIHHHIHHIHHH]
OUTPUT: 64

----------
Entries below carry reported MIC on Candida albicans CGMCC 2.2086.

Field: example entries. Status: answers known.
CC[C@H](C)[C@H](N)C(=O)N[C@@H](Cc1cnc[nH]1)C(=O)N[C@@H](Cc1cnc[nH]1)C(=O)N[C@H](C(=O)N[C@@H](Cc1cnc[nH]1)C(=O)N[C@@H](Cc1cnc[nH]1)C(=O)N[C@@H](Cc1cnc[nH]1)C(=O)N[C@H](C(=O)N[C@@H](Cc1cnc[nH]1)C(=O)N[C@@H](Cc1cnc[nH]1)C(=O)N[C@H](C(=O)N[C@@H](Cc1cnc[nH]1)C(=O)N[C@@H](Cc1cnc[nH]1)C(=O)N[C@@H](Cc1cnc[nH]1)C(N)=O)[C@@H](C)CC)[C@@H](C)CC)[C@@H](C)CC 16 µM
CC[C@H](C)[C@H](NC(=O)[C@H](CCCCN)NC(=O)[C@H](C)NC(=O)[C@H](C)N)C(=O)N[C@H](C(=O)N[C@@H](CC(C)C)C(=O)N[C@@H](CC(N)=O)C(=O)N1CCC[C@H]1C(=O)N[C@@H](CCCCN)C(=O)N[C@@H](Cc1ccccc1)C(=O)N[C@@H](CCCN=C(N)N)C(=O)N[C@H]1CSSC[C@@H](C(N)=O)NC(=O)[C@H](Cc2ccccc2)NC(=O)[C@H](C)NC(=O)[C@H](C)NC(=O)[C@H](CCCCN)NC1=O)[C@@H](C)CC ≥ 128 µM
CC[C@H](C)[C@H](NC(=O)[C@H](CCCN=C(N)N)NC(=O)[C@H](C)NC(=O)[C@H](C)N)C(=O)N[C@H](C(=O)N[C@@H](CC(C)C)C(=O)N[C@@H](CCCN=C(N)N)C(=O)N[C@@H](Cc1ccc(O)cc1)C(=O)N[C@@H](CCCN=C(N)N)C(=O)N[C@@H](Cc1ccccc1)C(=O)N[C@@H](CCCN=C(N)N)C(N)=O)[C@@H](C)CC ≥ 128 µM

INPUT: Any idea what MIC came out for "CC[C@H](C)[C@H](NC(=O)[C@H](CCCN=C(N)N)NC(=O)[C@H](C)NC(=O)[C@H](C)N)C(=O)N[C@H](C(=O)N[C@@H](CC(C)C)C(=O)N[C@@H](CCCN=C(N)N)C(=O)N1CCC[C@H]1C(=O)N[C@@H](CCCN=C(N)N)C(=O)N[C@@H](Cc1ccccc1)C(=O)N[C@@H](CCCN=C(N)N)C(N)=O)[C@@H](C)CC" on Candida albicans CGMCC 2.2086?
OUTPUT: ≥ 128 µM

Origin of the recorded values: DBAASP
